Biological target: HisAviTEV-hSTING (139-342) human AQ-mutated protein (Homo sapiens, UniProt Q86WV6, G230A/H232R/R293Q)
Construct: made in house; host or cells: E. coli Rosetta 2 (DE3), co-expressed with BirA (1-321)
Sequence (Q86WV6 with tags, fused parts or gaps G230A/H232R/R293Q): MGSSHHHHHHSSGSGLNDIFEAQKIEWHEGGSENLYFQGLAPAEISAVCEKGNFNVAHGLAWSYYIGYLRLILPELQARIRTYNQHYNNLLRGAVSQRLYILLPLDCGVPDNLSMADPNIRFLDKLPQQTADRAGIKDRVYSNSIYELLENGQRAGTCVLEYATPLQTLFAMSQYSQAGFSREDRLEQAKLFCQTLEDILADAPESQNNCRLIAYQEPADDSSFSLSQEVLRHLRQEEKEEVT
Experiment: Protein thermal shift assay, STING C-terminal binding domain protein
Conditions: test compound final concentration 0.5 mM
reported endpoint: ΔTm at 500 µM (°C)

| compound | reported endpoint | measure unit | recorded result |
| --- | --- | --- | --- |
| O=c1c2ncn([C@@H]3O[C@@H]4COP(=O)(S)O[C@H]5[C@@H](O)[C@H](n6cc7c8c(ncnc86)NCCC7)O[C@@H]5COP(=O)(S)O[C@@H]3[C@@H]4F)c2ncn1CCO (single isomer, unassigned) [39a] | ΔTm at 500 µM | °C | 12.9 |
| O=C(CO)NCCn1cnc2c(ncn2[C@@H]2O[C@@H]3COP(=O)(S)O[C@H]4[C@@H](F)[C@H](n5cc6c7c(ncnc75)NCCC6)O[C@@H]4COP(=O)(S)O[C@@H]2[C@@H]3O)c1=O (single isomer, unassigned) [36a] | ΔTm at 500 µM | °C | 13.3 |
| O=c1c2ncn([C@@H]3O[C@@H]4COP(=O)(S)O[C@H]5[C@@H](O)[C@H](n6cc7c8c(ncnc86)NCCC7)O[C@@H]5COP(=O)(S)O[C@@H]3[C@@H]4O)c2ncn1CCO (single isomer, unassigned) | ΔTm at 500 µM | °C | 14.8 |
| O=c1c2ncn([C@@H]3O[C@@H]4COP(=O)(O)O[C@H]5[C@@H](F)[C@H](n6cc7c8c(ncnc86)NCCC7)O[C@@H]5COP(=O)(S)O[C@@H]3[C@@H]4O)c2ncn1CCO (single isomer, unassigned) [52a] | ΔTm at 500 µM | °C | 13.5 |

---

Biological target: HisAviTEV-hSTING (139-342) human wild-type protein (Homo sapiens, UniProt Q86WV6, H232R)
Construct: made in house; host or cells: E. coli Rosetta 2 (DE3), co-expressed with BirA (1-321)
Sequence (Q86WV6 with tags, fused parts or gaps H232R): as the sequence (Q86WV6 with tags, fused parts or gaps G230A/H232R/R293Q) above, with A131G, Q194R counted along it
Assay: Protein thermal shift assay, STING C-terminal binding domain protein
Conditions: test compound final concentration 0.5 mM
reported endpoint: ΔTm at 500 µM (°C)

| compound | assayed system | ΔTm at 500 µM [°C] |
| --- | --- | --- |
| O=c1c2ncn([C@@H]3O[C@@H]4COP(=O)(S)O[C@H]5[C@@H](O)[C@H](n6cc7c8c(ncnc86)NCCC7)O[C@@H]5COP(=O)(S)O[C@@H]3[C@@H]4O)c2ncn1CCO (single isomer, unassigned) | HisAviTEV-hSTING (139-342) human wild-type protein (Homo sapiens, UniProt Q86WV6, H232R) | 10.6 |
| O=C(CO)NCCn1cnc2c(ncn2[C@@H]2O[C@@H]3COP(=O)(S)O[C@H]4[C@@H](O)[C@H](n5cc6c7c(ncnc75)NCCC6)O[C@@H]4COP(=O)(S)O[C@@H]2[C@@H]3O)c1=O (single isomer, unassigned) | HisAviTEV-hSTING (139-342) human wild-type protein (Homo sapiens, UniProt Q86WV6, H232R) | 8 |
| NCCNc1nc(N)c2ncn([C@@H]3O[C@@H]4COP(=O)(S)O[C@H]5[C@@H](O)[C@H](n6cc7c8c(ncnc86)NCCC7)O[C@@H]5COP(=O)(S)O[C@@H]3[C@@H]4F)c2n1 (single isomer, unassigned) [42a] | HisAviTEV-hSTING (139-342) human wild-type protein (Homo sapiens, UniProt Q86WV6, H232R) | 6.5 |
| Nc1ncnc2c1ncn2[C@@H]1O[C@@H]2COP(=O)(S)O[C@H]3[C@@H](O)[C@H](n4cc5c6c(ncnc64)SCCC5)O[C@@H]3COP(=O)(S)O[C@@H]1[C@@H]2O (single isomer, unassigned) [23a] | HisAviTEV-hSTING (139-342) human wild-type protein (Homo sapiens, UniProt Q86WV6, H232R) | 9.7 |
| NCCNc1nc(N)c2ncn([C@@H]3O[C@@H]4COP(=O)(S)O[C@H]5[C@@H](F)[C@H](n6cc7c8c(ncnc86)NCCC7)O[C@@H]5COP(=O)(S)O[C@@H]3[C@@H]4O)c2n1 (single isomer, unassigned) [37a] | HisAviTEV-hSTING (139-342) human wild-type protein (Homo sapiens, UniProt Q86WV6, H232R) | 11.2 |
| Nc1nc2c(ncn2[C@@H]2O[C@@H]3COP(=O)(S)O[C@H]4[C@@H](O)[C@H](n5cc6c7c(ncnc75)NCCC6)O[C@@H]4COP(=O)(S)O[C@@H]2[C@@H]3O)c(=O)[nH]1 (single isomer, unassigned) | HisAviTEV-hSTING (139-342) human wild-type protein (Homo sapiens, UniProt Q86WV6, H232R) | 11.5 |
| Nc1ncnc2c1ncn2[C@@H]1O[C@@H]2COP(=O)(S)O[C@H]3[C@@H](O)[C@H](n4cc5c6c(ncnc64)OCCC5)O[C@@H]3COP(=O)(S)O[C@@H]1[C@@H]2O (single isomer, unassigned) [20a] | HisAviTEV-hSTING (139-342) human wild-type protein (Homo sapiens, UniProt Q86WV6, H232R) | 7.5 |
| NCCn1cnc2c(ncn2[C@@H]2O[C@@H]3COP(=O)(S)O[C@H]4[C@@H](F)[C@H](n5cc6c7c(ncnc75)SCCC6)O[C@@H]4COP(=O)(S)O[C@@H]2[C@@H]3O)c1=O (single isomer, unassigned) [49b] | HisAviTEV-hSTING (139-342) human wild-type protein (Homo sapiens, UniProt Q86WV6, H232R) | 12.6 |
| O=c1c2ncn([C@@H]3O[C@@H]4COP(=O)(S)O[C@H]5[C@@H](F)[C@H](n6cc7c8c(ncnc86)NCCC7)O[C@@H]5COP(=O)(S)O[C@@H]3[C@@H]4O)c2ncn1CCO (single isomer, unassigned) [34a] | HisAviTEV-hSTING (139-342) human wild-type protein (Homo sapiens, UniProt Q86WV6, H232R) | 14.7 |
| NCCNc1nc(N)c2ncn([C@@H]3O[C@@H]4COP(=O)(S)O[C@H]5[C@@H](F)[C@H](n6cc7c8c(ncnc86)NCCC7)O[C@@H]5COP(=O)(S)O[C@@H]3[C@@H]4F)c2n1 (single isomer, unassigned) [45a] | HisAviTEV-hSTING (139-342) human wild-type protein (Homo sapiens, UniProt Q86WV6, H232R) | 8.9 |

I = O=c1c2ncn([C@@H]3O[C@@H]4COP(=O)(S)O[C@H]5[C@@H](O)[C@H](n6cc7c8c(ncnc86)NCCC7)O[C@@H]5COP(=O)(S)O[C@@H]3[C@@H]4O)c2ncn1CCCO (single isomer, unassigned) [26b]
II = O=c1c2ncn([C@@H]3O[C@@H]4COP(=O)(S)O[C@H]5[C@@H](F)[C@H](n6cc7c8c(ncnc86)NCCC7)O[C@@H]5COP(=O)(S)O[C@@H]3[C@@H]4F)c2ncn1CCO (single isomer, unassigned) [44a]
Looking only at measured ΔTm at 500 µM, which entry is lower, I or II ? To answer, give the label that identifies your chosen option.
I
(I: 9.1 °C, II: 13.4 °C)

A = NCCNc1nc(N)c2ncn([C@@H]3O[C@@H]4COP(=O)(S)O[C@H]5[C@@H](O)[C@H](n6cc7c8c(ncnc86)NCCC7)O[C@@H]5COP(=O)(S)O[C@@H]3[C@@H]4O)c2n1 (single isomer, unassigned)
B = O=c1c2ncn([C@@H]3O[C@@H]4COP(=O)(S)O[C@H]5[C@@H](F)[C@H](n6cc7c8c(ncnc86)SCCC7)O[C@@H]5COP(=O)(S)O[C@@H]3[C@@H]4O)c2ncn1CCO (single isomer, unassigned) [48a]
C = O=c1c2ncn([C@@H]3O[C@@H]4COP(=O)(O)O[C@H]5[C@@H](F)[C@H](n6cc7c8c(ncnc86)NCCC7)O[C@@H]5COP(=O)(S)O[C@@H]3[C@@H]4O)c2ncn1CCO (single isomer, unassigned) [52a]
Put the items in order so that reported ΔTm at 500 µM rises from first to last. Order the labels as requested and list them.
A, C, B
(A: 7.6 °C, C: 10.9 °C, B: 15.9 °C)

P = O=P1(S)OC[C@H]2O[C@@H](n3cc4c5c(ncnc53)NCCC4)[C@H](O)[C@@H]2OP(=O)(S)OC[C@H]2O[C@@H](n3cnc4c(CO)ncnc43)[C@H](O1)[C@@H]2O (single isomer, unassigned) [17a]
Q = NCCn1cnc2c(ncn2[C@@H]2O[C@@H]3COP(=O)(S)O[C@H]4[C@@H](F)[C@H](n5cc6c7c(ncnc75)NCCC6)O[C@@H]4COP(=O)(S)O[C@@H]2[C@@H]3O)c1=O (single isomer, unassigned) [35a]
Response body: label of entry with the larger ΔTm at 500 µM; valid values P , Q . To answer, give the label that identifies your chosen option.
Q
